Test system: Echinochloa crus-galh (ECHCG)
Test: Pre-emergence herbicidal glasshouse test (Table B1)
Assay type: in vivo
Settings: applied at 500 g/h, evaluated after 13 days
RESULT_TYPE: PRE Application ECHCG, percentage damage on five-point scale

// below: answered compounds
{"columns": ["COMPOUND", "SYSTEM_TESTED", "RESULT"],
 "data": [
  ["Cn1nnnc1NC(=O)c1ccc(OC(F)(F)F)c(NC(=O)C2(C)CC2)c1Cl", "Echinochloa crus-galh (ECHCG)", "5 (5=80-100%)"],
  ["Cc1nnc(NC(=O)c2ccc(OC(F)(F)F)c(N(C)C)c2Cl)o1", "Echinochloa crus-galh (ECHCG)", "5 (5=80-100%)"],
  ["Cc1cc(C(=O)Nc2c(OC(F)(F)F)ccc(C(=O)Nc3nnnn3C)c2Cl)no1", "Echinochloa crus-galh (ECHCG)", "1 (1=0-19%)"],
  ["CCC(CC)C(=O)Nc1c(OC(F)(F)F)ccc(C(=O)Nc2nnnn2C)c1Cl", "Echinochloa crus-galh (ECHCG)", "5 (5=80-100%)"],
  ["Cc1ncc(C(=O)Nc2c(OC(F)(F)F)ccc(C(=O)Nc3nnnn3C)c2Cl)s1", "Echinochloa crus-galh (ECHCG)", "1 (1=0-19%)"],
  ["CN(C)c1c(OC(F)(F)F)ccc(C(=O)Nc2nnnn2C)c1Cl", "Echinochloa crus-galh (ECHCG)", "5 (5=80-100%)"],
  ["CCn1nnnc1NC(=O)c1ccc(OC(F)(F)F)c(NC(=O)c2ccccn2)c1Cl", "Echinochloa crus-galh (ECHCG)", "3 (3=40-59%)"],
  ["CCCn1nnnc1NC(=O)c1ccc(OC(F)(F)F)c(NC(C)=O)c1Cl", "Echinochloa crus-galh (ECHCG)", "4 (4=60-79%)"]
]}

*Q* Please report the recorded PRE Application ECHCG, percentage damage on five-point scale for CCCn1nnnc1NC(=O)c1ccc(OC(F)(F)F)c(NC(=O)c2ccccn2)c1Cl .
*A* 3 (3=40-59%)

*Q* Record request: PRE Application ECHCG, percentage damage on five-point scale value, item CC(=O)N(C)c1c(OC(F)(F)F)ccc(C(=O)Nc2nnc(C)o2)c1Cl
*A* 5 (5=80-100%)

*Q* Can you share its PRE Application ECHCG, percentage damage on five-point scale? I mean this compound: COCC(=O)Nc1c(OC(F)(F)F)ccc(C(=O)Nc2nnnn2C)c1Cl
*A* 2 (2=20-39%)
